src = ChEMBL document CHEMBL5614367

assay: Cytotoxicity against rat H9c2 cells assessed as inhibition of cell growth incubated for 72 hrs by MTT assay; format: toxicity, cell-based
observation type: IC50 at 72 h (µM)
# value in µM; strip the unit string

Look up and report measured IC50 at 72 h for this entry: O=C(CCCCCCC(=O)Nc1nc2c(s1)C[C@@H](NC(=O)c1cccc3ccccc13)CC2)NO 43.8

---

assay: Cytotoxicity against human NCM460 cells; format: toxicity, cell-based
observation type: pIC50
Note on units: pIC50 is unitless, being -log10 of a concentration expressed in mol/L.

Look up and report measured pIC50 for this entry: COc1ccc2c3ccnc(C)c3n(CC3CCN(c4ncc(C(=O)NO)cn4)CC3)c2c1 4.73

---

Consider the following compounds; for each one, report its pIC50.
test system: HEL; assay: Antiproliferative activity against human HEL cells measured after 72 hrs by CCK-8 assay; format: functional, cell-based
Note on units: pIC50 is unitless, being -log10 of a concentration expressed in mol/L.

Look up and report measured pIC50 for this entry: C=C[C@]1(C)CC[C@@H](C(=C)Cn2cccn2)C[C@H]1C(=C)CN1CCN(C(=O)CCCCCCC(=O)NO)CC1 6.00

Look up and report measured pIC50 for this entry: C=C[C@@]1(C)CC[C@H](C(=C)CN2CCN(C(=O)CCCCCCC(=O)NO)CC2)C[C@@H]1C(=C)Cn1cccn1 6.10

---

Consider the following compounds; for each one, report its pIC50.
tested on: HCT-116; assay: Antiproliferative activity against human HCT-116 cells measured after 72 hrs by MTT assay; assay type: functional, cell-based; settings: HCT-116, 72 h
Note on units: pIC50 is unitless, being -log10 of a concentration expressed in mol/L.

Look up and report measured pIC50 for this entry: COc1cc2c(Oc3ccc(NC(=O)C4(C(=O)Nc5ccc(F)cc5)CC4)cc3F)ccnc2cc1OCCCN1CCOCC1 6.28

Look up and report measured pIC50 for this entry: COc1cc2c(Oc3ccc(NC(=O)C4CCN(c5cccc(F)c5)C4=O)cc3)ccnc2cc1OCCCCCCC(=O)NO (stereo not drawn) 6.55

Look up and report measured pIC50 for this entry: COc1cc2c(Oc3ccc(NC(=O)C4CCN(c5ccc(F)cc5)C4=O)cc3)ccnc2cc1OCCCCCCC(=O)NO (stereo not drawn) 6.55

---

Molecular target: Protein deacetylase HDAC6 (Homo sapiens, UniProt Q9UBN7)
Sequence (Q9UBN7 whole entry): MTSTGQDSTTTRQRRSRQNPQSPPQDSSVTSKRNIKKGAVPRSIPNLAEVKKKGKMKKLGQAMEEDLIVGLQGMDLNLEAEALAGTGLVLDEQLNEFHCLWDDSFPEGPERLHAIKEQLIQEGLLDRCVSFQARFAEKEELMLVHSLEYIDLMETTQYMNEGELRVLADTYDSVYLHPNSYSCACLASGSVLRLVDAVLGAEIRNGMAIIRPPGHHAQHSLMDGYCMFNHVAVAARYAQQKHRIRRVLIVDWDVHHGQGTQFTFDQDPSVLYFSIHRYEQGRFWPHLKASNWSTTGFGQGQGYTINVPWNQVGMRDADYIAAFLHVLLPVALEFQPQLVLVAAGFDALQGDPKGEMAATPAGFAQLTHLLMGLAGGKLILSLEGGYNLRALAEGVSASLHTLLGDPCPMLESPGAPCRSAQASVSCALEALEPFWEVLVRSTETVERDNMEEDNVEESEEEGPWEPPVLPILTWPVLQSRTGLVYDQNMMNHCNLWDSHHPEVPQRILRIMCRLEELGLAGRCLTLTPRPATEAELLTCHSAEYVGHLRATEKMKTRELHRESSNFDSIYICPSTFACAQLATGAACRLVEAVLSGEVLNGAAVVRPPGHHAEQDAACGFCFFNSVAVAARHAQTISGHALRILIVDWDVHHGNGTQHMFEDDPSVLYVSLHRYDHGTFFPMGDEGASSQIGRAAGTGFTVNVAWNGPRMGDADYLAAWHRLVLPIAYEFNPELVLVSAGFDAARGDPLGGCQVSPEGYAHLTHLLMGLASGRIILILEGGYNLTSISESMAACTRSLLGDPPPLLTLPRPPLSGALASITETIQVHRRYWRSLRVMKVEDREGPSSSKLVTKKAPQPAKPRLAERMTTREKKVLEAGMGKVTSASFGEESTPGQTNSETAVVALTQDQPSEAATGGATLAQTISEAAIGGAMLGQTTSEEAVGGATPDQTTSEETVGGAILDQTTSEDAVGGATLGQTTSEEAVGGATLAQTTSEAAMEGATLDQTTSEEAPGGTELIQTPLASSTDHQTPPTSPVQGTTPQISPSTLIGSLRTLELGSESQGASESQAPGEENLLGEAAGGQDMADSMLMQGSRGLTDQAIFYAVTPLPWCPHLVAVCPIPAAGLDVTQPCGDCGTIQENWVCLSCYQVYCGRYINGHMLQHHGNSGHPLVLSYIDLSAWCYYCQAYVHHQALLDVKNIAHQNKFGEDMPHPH
Assay: Inhibition of HDAC6 (unknown origin) incubated for 30 mins by fluorescence based microplate reader analysis
observation type: IC50 (nM)
# value in nM; strip the unit string

Retrieve IC50 on Protein deacetylase HDAC6 (Homo sapiens, UniProt Q9UBN7); query O=C(CCCCCCC(=O)Nc1nc2c(s1)C[C@@H](NC(=O)c1cccc3ccccc13)CC2)NO 1.4
